Assay: Measurement of Log P values by HPLC on reversed phase columns (EEC directive 79/831 Annex V.A8)
Type: physicochemical
Conditions: method [a]: LC-UV, acidic range, 0.1% formic acid in water and acetonitrile as eluent
Description: Measurement of Log P values as provided herein was performed according to EEC directive 79/831 Annex V.A8 by HPLC (High Performance Liquid Chromatography) on reversed phase columns with the following methods: • ^[a] Log P value is determined by measurement of LC-UV, in an acidic range, with 0.1% formic acid in water and acetonitrile as eluent (linear gradient from 10% acetonitrile to 95% acetonitrile). • ^[b] […]
Readout Kind: chromatographic logP

compound="C#Cc1cccc(Oc2cnc3ccccc3c2C2=NOC[C@@H](Cc3ccc(C)cc3C)N2)c1 (racemic) [Compound I-016]" readout_kind="chromatographic logP" result_number=4.05
compound="Cc1ccc(C[C@H](CON2C(=O)c3ccccc3C2=O)NC(=O)c2c(Oc3cccc(Br)c3F)cnc3ccccc23)c(C)c1 (racemic) [Compound 3-06]" readout_kind="chromatographic logP" result_number=4.78
compound="Cc1ccc(C[C@H](CON)NC(=O)c2c(Oc3cccc(Br)c3F)nnc3c2CCCC3)c(C)c1 (racemic) [Compound 4-12]" readout_kind="chromatographic logP" result_number=2.75
compound="Cn1cc(-c2ccc(C[C@@H]3CON=C(c4c(Oc5cccc(C(F)(F)F)c5)nnc5ccccc45)N3)c(Cl)c2)cn1 (racemic) [Compound I-008]" readout_kind="chromatographic logP" result_number=3.37
compound="Cc1ccc(C[C@@H]2CON=C(c3c(Oc4cccc(C5CC5)c4F)cnc4ccccc34)N2)c(C)c1 (racemic) [Compound I-017]" readout_kind="chromatographic logP" result_number=4.51
compound="Cc1ccc(C[C@@H]2CON=C(c3c(Oc4cccc(C(F)F)c4)nnc4c3CCCC4)N2)c(C)c1 (racemic) [Compound I-028]" readout_kind="chromatographic logP" result_number=3.6
compound="C#Cc1cccc(Oc2cnc3ccccc3c2C(=O)N[C@@H](CON)Cc2ccc(C)cc2C)c1 (racemic) [Compound 4-04]" readout_kind="chromatographic logP" result_number=2.83

----------
experiment: Measurement of Log P values by HPLC on reversed phase columns (EEC directive 79/831 Annex V.A8); type: physicochemical; details: method [a]: LC-UV, acidic range, 0.1% formic acid in water and acetonitrile as eluent
Readout Kind: chromatographic logP

compound="Cc1ccc(C[C@@H]2CON=C(c3c(Oc4cccc(C5CC5)c4F)cnc4ccccc34)N2)c(Cl)c1 (racemic)" result_number=4.55
compound="Cc1ccc(C[C@H](CCl)NC(=O)c2c(Br)cnc3nccnc23)c(C)c1 (racemic)" result_number=2.97
compound="Cc1ccc(C[C@@H]2CON=C(c3c(Oc4cccc(Br)c4F)cnc4ccccc34)N2)c(C)c1 (racemic)" result_number=4.33
compound="Cc1ccc(C[C@@H]2CON=C(c3c(Oc4cccc(C(F)(F)F)c4)nnc4c3CCCC4)N2)c(C)c1 (racemic)" result_number=3.99
compound="C=Cc1cccc(Oc2cnc3ccccc3c2C(=O)N[C@@H](CON2C(=O)c3ccccc3C2=O)Cc2ccc(C)cc2C)c1 (racemic)" result_number=4.78
compound="Cc1ccc(C[C@@H]2CON=C(c3c(Oc4cccc(C(F)(F)F)c4)nnc4cc(C)ccc34)N2)c(C)c1 (racemic)" result_number=4.32
compound=CCOC(=O)c1c(Oc2cccc(C(F)(F)F)c2)nnc2c1CCC2 result_number=3.5

----------
test: Measurement of Log P values by HPLC on reversed phase columns (EEC directive 79/831 Annex V.A8); type: physicochemical; settings: method [a]: LC-UV, acidic range, 0.1% formic acid in water and acetonitrile as eluent
Reported chromatographic logP values follow for various compounds
Readout Kind: chromatographic logP

compound="C=Cc1ccc(C[C@@H]2CON=C(c3c(Oc4cccc(C(F)(F)F)c4)nnc4ccccc34)N2)c(Cl)c1 (racemic)" result_number=4.44
compound="Cc1ccc(C[C@H](CON)NC(=O)c2c(Oc3cccc(C(F)(F)F)c3)nnc3c2CCC3)c(C)c1 (racemic)" result_number=2.78
compound="C=Cc1cccc(Oc2cnc3ccccc3c2C(=O)N[C@@H](CON2C(=O)c3ccccc3C2=O)Cc2ccc(C)cc2Cl)c1 (racemic)" result_number=4.71

----------
Listed compounds paired with reported chromatographic logP
Assay: Measurement of Log P values by HPLC on reversed phase columns (EEC directive 79/831 Annex V.A8)
Assay type: physicochemical
Conditions: method [a]: LC-UV, acidic range, 0.1% formic acid in water and acetonitrile as eluent
Protocol: Measurement of Log P values as provided herein was performed according to EEC directive 79/831 Annex V.A8 by HPLC (High Performance Liquid Chromatography) on reversed phase columns with the following methods: • ^[a] Log P value is determined by measurement of LC-UV, in an acidic range, with 0.1% formic acid in water and acetonitrile as eluent (linear gradient from 10% acetonitrile to 95% acetonitrile). • ^[b] […]
Readout Kind: chromatographic logP

compound="Cc1ccc(C[C@H](CCl)NC(=NO)c2c(Oc3cccc(Br)c3F)cnc3ccccc23)c(Cl)c1 (racemic)" result_number=4.62
compound="Cc1ccc(C[C@@H]2CON=C(c3c(Oc4cccc(C5CC5)c4F)nnc4c3CCC4)N2)c(C)c1 (racemic)" result_number=4.13
compound="Cc1ccc(C[C@H](CON)NC(=O)c2c(Oc3cccc(Br)c3F)cnc3ccccc23)c(C)c1 (racemic)" result_number=3.11
compound="Cc1ccc(C[C@H](CON2C(=O)c3ccccc3C2=O)NC(=O)c2c(Oc3cccc(C4CC4)c3F)nnc3c2CCC3)c(C)c1 (racemic)" result_number=4.56
compound="N[C@H](CCl)Cc1ccc(Br)cc1Cl (racemic)" result_number=1.37
compound="C=Cc1cccc(Oc2cnc3ccccc3c2C2=NOC[C@@H](Cc3ccc(C)cc3Cl)N2)c1 (racemic)" result_number=4.19
compound="Cc1ccc(C[C@H](CON)NC(=O)c2c(Oc3cccc(C(F)(F)F)c3)cnc3ccccc23)c(C)c1 (racemic)" result_number=3.17
compound="Cc1ccc(C[C@@H]2CON=C(c3c(Oc4cccc(Br)c4F)cnc4ccccc34)N2)c(Cl)c1 (racemic)" result_number=4.37

----------
Known chromatographic logP of a selection of compounds
assay: Measurement of Log P values by HPLC on reversed phase columns (EEC directive 79/831 Annex V.A8); type: physicochemical; conditions: method [a]: LC-UV, acidic range, 0.1% formic acid in water and acetonitrile as eluent
Readout Kind: chromatographic logP

compound="Cc1ccc(C[C@H](CON2C(=O)c3ccccc3C2=O)NC(=O)c2c(Oc3cccc(C(F)(F)F)c3)cnc3ccccc23)c(C)c1 (racemic)" readout_kind="chromatographic logP" result_number=4.72
compound="Cc1ccc(C[C@H](CON)NC(=O)c2c(Oc3cccc(C4CC4)c3F)cnc3ccccc23)c(C)c1 (racemic)" readout_kind="chromatographic logP" result_number=3.31
compound="Cc1ccc(C[C@H](CCl)NC(=O)c2c(Oc3cccc(C4CC4)c3F)cnc3ccccc23)c(Cl)c1 (racemic)" readout_kind="chromatographic logP" result_number=5
compound="C=Cc1cccc(Oc2cnc3ccccc3c2C2=NOC[C@@H](Cc3ccc(C)cc3C)N2)c1 (racemic)" readout_kind="chromatographic logP" result_number=4.23
compound="C#Cc1cccc(Oc2cnc3ccccc3c2C2=NOC[C@@H](Cc3ccc(C)cc3Cl)N2)c1 (racemic)" readout_kind="chromatographic logP" result_number=3.91
compound="Cc1ccc(C[C@H](CCl)NC(=O)c2c(Oc3cccc(C(F)F)c3)cnc3ccccc23)c(Cl)c1 (racemic)" readout_kind="chromatographic logP" result_number=4.33
compound="Cc1ccc(C[C@@H]2CN=C(c3c(Oc4cccc(Cl)c4)nnc4ccccc34)N2)c(C)c1 (racemic)" readout_kind="chromatographic logP" result_number=2.46
compound="Cc1ccc(C[C@H](CCl)NC(=NO)c2c(Oc3cccc(C(F)F)c3)cnc3ccccc23)c(Cl)c1 (racemic)" readout_kind="chromatographic logP" result_number=4.28
compound="Cc1ccc(C[C@H](CON2C(=O)c3ccccc3C2=O)NC(=O)c2c(Oc3cccc(C4CC4)c3F)cnc3ccccc23)c(C)c1 (racemic)" readout_kind="chromatographic logP" result_number=4.96
compound="Cc1ccc(CC2CN=C(c3c(Oc4cccc(C(F)(F)F)c4)cnc4ccccc34)N2)c(C)c1 (racemic)" readout_kind="chromatographic logP" result_number=2.57
compound="Cc1ccc(C[C@H](CON)NC(=O)c2c(Oc3cccc(Cl)c3F)nnc3c2CCCC3)c(C)c1 (racemic)" readout_kind="chromatographic logP" result_number=2.7
compound="Cc1ccc(CC2CON=C(c3c(Oc4cccc(Cl)c4)nnc4ccccc34)N2)c(C)c1 (racemic)" readout_kind="chromatographic logP" result_number=3.96
compound="C#Cc1cccc(Oc2cnc3ccccc3c2C(=O)N[C@@H](CON2C(=O)c3ccccc3C2=O)Cc2ccc(C)cc2C)c1 (racemic)" readout_kind="chromatographic logP" result_number=4.44
compound=O=C(O)c1c(Oc2cccc(C(F)(F)F)c2)nnc2c1CCC2 readout_kind="chromatographic logP" result_number=1.75
compound="Cc1ccc(C[C@@H]2CON=C(c3c(Oc4cccc(C(F)F)c4)cnc4ccccc34)N2)c(Cl)c1 (racemic)" readout_kind="chromatographic logP" result_number=3.98
compound="Cc1ccc(C[C@@H]2CON=C(c3c(Oc4cccc(C)c4F)cnc4ccccc34)N2)c(C)c1 (racemic)" readout_kind="chromatographic logP" result_number=4.15
compound="Cc1ccc(C[C@H](CCl)NC(=O)c2c(Oc3cccc(Br)c3F)cnc3ccccc23)c(Cl)c1 (racemic)" readout_kind="chromatographic logP" result_number=4.7
compound="Cc1ccc(C[C@H](N)CCl)c(C)c1 (racemic)" readout_kind="chromatographic logP" result_number=1.24
compound="Cc1ccc(C[C@H](CON2C(=O)c3ccccc3C2=O)NC(=O)c2c(Oc3cccc(C(F)(F)F)c3)nnc3c2CCCC3)c(C)c1 (racemic)" readout_kind="chromatographic logP" result_number=4.59
compound="Cc1ccc(C[C@@H]2CON=C(c3c(Oc4cccc(C(F)(F)F)c4)cnc4ccoc34)N2)c(C)c1 (racemic)" readout_kind="chromatographic logP" result_number=3.96
compound="C#Cc1cccc(Oc2cnc3ccccc3c2C(=O)N[C@@H](CON2C(=O)c3ccccc3C2=O)Cc2ccc(C)cc2Cl)c1 (racemic)" readout_kind="chromatographic logP" result_number=4.47
